# target-of-assay: VSTB174
# Sequence (VH, as listed by the source, chain 1 of 2): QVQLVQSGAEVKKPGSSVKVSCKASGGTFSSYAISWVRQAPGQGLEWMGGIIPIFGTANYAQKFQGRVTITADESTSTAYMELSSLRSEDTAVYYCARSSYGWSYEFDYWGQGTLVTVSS
# Sequence (VL, as listed by the source, chain 2 of 2): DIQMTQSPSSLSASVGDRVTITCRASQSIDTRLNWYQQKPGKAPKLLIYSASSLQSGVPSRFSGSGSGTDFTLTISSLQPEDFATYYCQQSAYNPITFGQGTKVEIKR
# experimental-details: peptide blocking ELISA on plate-bound VISTA, peptide 20 ug/mL
result-type: percent reduction in ELISA signal (%)
Give the quantity in %, number only.

[[record]]
binder = "TCRLLGPVDKGHDVT (synthetic overlapping peptide from human VISTA) [Spiked Peptide 5 (TCRLLGPVDKGHDVT)]"
result_type = "percent reduction in ELISA signal"
data_value = 14


Query: If you can, please state the reported percent reduction in ELISA signal value of HHHSEHRVHGAMELQ (synthetic overlapping peptide from human VISTA) [Spiked Peptide 25 (HHHSEHRVHGAMELQ)] .
Reply: 83

Query: And VCPEGQNVTLTCRLL (synthetic overlapping peptide from human VISTA) [Spiked Peptide 3 (VCPEGQNVTLTCRLL)] ?
Reply: 37

Query: And PYSLYVCPEGQNVTL (synthetic overlapping peptide from human VISTA) [Spiked Peptide 2 (PYSLYVCPEGQNVTL)] ?
Reply: 3

Reference source for all entries: patent US20240132593A1
